# target-or-system: Cytochrome P450 1A2 (Homo sapiens)
# Sequence (P05177 whole entry): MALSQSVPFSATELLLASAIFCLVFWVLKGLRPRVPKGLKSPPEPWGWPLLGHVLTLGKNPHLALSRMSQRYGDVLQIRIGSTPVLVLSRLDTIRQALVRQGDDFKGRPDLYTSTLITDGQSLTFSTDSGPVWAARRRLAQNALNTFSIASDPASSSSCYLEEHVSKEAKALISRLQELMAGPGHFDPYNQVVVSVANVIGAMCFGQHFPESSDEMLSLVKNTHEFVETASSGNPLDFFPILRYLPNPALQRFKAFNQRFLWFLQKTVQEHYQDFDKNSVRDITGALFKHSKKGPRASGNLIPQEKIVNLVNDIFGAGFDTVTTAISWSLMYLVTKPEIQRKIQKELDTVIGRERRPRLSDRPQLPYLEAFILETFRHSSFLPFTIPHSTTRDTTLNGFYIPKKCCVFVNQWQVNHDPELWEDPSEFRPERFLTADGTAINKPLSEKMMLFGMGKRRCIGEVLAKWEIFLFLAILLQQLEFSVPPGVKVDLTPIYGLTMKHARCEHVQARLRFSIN
# assay-summary: Inhibition of human recombinant CYP1A2 by fluorescence assay
test-readout: IC50

Look up and report measured IC50 for this entry: `NC(=O)c1c(F)ccc(OCc2nc3cc(Cl)ccc3s2)c1F` > 33.8 µM

* * *

# Test system: Plasma
# assay-summary: Fraction unbound in mouse plasma at 10 uM by equilibrium dialysis
# Type: ADME, cell-free
test-readout: Fu
Note: state the figure and append the unit.

Look up and report measured Fu for this entry: `NC(=O)c1c(F)ccc(OCc2nc3cc(Cl)ccc3s2)c1F` 3%

* * *

# target-or-system: Cell division protein FtsZ (Staphylococcus aureus)
# Sequence (whole entry): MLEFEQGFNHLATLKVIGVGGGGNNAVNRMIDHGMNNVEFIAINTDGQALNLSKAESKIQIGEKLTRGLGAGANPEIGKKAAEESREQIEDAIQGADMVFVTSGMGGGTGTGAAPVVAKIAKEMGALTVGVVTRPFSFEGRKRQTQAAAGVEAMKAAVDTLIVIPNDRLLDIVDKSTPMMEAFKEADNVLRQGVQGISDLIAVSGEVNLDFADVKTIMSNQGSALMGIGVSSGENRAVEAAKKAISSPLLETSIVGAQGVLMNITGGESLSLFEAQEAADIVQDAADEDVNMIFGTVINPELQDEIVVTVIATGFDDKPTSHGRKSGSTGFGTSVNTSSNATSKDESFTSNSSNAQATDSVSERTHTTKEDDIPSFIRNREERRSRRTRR
# assay-summary: Inhibition of Staphylococcus aureus ATCC 29213 FtsZ assessed as lowest drug level required for ballooning of cells by light microscopy
Param label: returns label 1 when Activity < 0.5 µg/mL, returns label 0 otherwise, including exact equality.

Some solved cases for reference:
Dear reviewer, please state whether `NC(=O)c1c(F)ccc(OCc2nc3c(Cl)cccc3s2)c1F` has Activity strictly beneath 0.5 µg/mL. label 0

Dear reviewer, please state whether `CCCc1ccc2sc(COc3ccc(F)c(C(N)=O)c3F)nc2c1` has Activity strictly beneath 0.5 µg/mL. label 1

Dear reviewer, please state whether `CCOc1ccc2sc(COc3ccc(F)c(C(N)=O)c3F)nc2c1` has Activity strictly beneath 0.5 µg/mL. label 1

Dear reviewer, please state whether `Cc1ccc2sc(COc3ccc(F)c(C(N)=O)c3F)nc2c1` has Activity strictly beneath 0.5 µg/mL. label 0

Dear reviewer, please state whether `NC(=O)c1c(F)ccc(OCc2nc3cc(Br)ccc3s2)c1F` has Activity strictly beneath 0.5 µg/mL. label 1

Next:
Dear reviewer, please state whether `COc1ccc2sc(COc3ccc(F)c(C(N)=O)c3F)nc2c1` has Activity strictly beneath 0.5 µg/mL. label 0

Dear reviewer, please state whether `COC(=O)c1ccc2sc(COc3ccc(F)c(C(N)=O)c3F)nc2c1` has Activity strictly beneath 0.5 µg/mL. label 0

Dear reviewer, please state whether `COc1cccc2sc(COc3ccc(F)c(C(N)=O)c3F)nc12` has Activity strictly beneath 0.5 µg/mL. label 0

Dear reviewer, please state whether `NC(=O)c1c(F)ccc(OCc2nc3cc(O)ccc3s2)c1F` has Activity strictly beneath 0.5 µg/mL. label 0

Dear reviewer, please state whether `NC(=O)c1c(F)ccc(OCc2nc3cc(Cl)ccc3s2)c1F` has Activity strictly beneath 0.5 µg/mL. label 1

Dear reviewer, please state whether `NC(=O)c1c(F)ccc(OCc2nc3cccc(Cl)c3s2)c1F` has Activity strictly beneath 0.5 µg/mL. label 0

Dear reviewer, please state whether `NC(=O)c1c(F)ccc(OCc2nc3ccc(Cl)cc3s2)c1F` has Activity strictly beneath 0.5 µg/mL. label 0

Dear reviewer, please state whether `Cc1cccc2sc(COc3ccc(F)c(C(N)=O)c3F)nc12` has Activity strictly beneath 0.5 µg/mL. label 0

Origin of values: ChEMBL document CHEMBL1157799
